Reference for the values: patent US5283256A

Target: farnesyl transferase (Homo sapiens, UniProt P49354+P49356)
Experiment: Farnesyl-transferase assay (Ras farnesylation in vitro)
Settings: ras-CVLS, 3H-FPP 100 nM; 60 min, room temperature; read-out: Farnesyl transferase IC50 (inhibition of Ras farnesylation in vitro)
measured_metric: IC50 (nM)
Numbers only, in nM.

compound: CCCCCCCCCC(=O)OC1C(O)C2(CCCC(OC(C)=O)C(C)C/C=C/c3ccccc3)OC(C(=O)O)C(O)(C(=O)O)C1(C(=O)O)O2 (centres unmarked) [Zaragozic Acid D2]
IC50 [nM]: 100

Quote IC50 reported for CCCCCCCC(=O)OC1C(O)C2(CCCC(OC(C)=O)C(C)C/C=C/c3ccccc3)OC(C(=O)O)C(O)(C(=O)O)C1(C(=O)O)O2 (centres unmarked) please.
100

---

Molecular target: squalene synthase (rat liver enzyme) (Rattus norvegicus, UniProt Q02769)
Sequence (Q02769 1-416): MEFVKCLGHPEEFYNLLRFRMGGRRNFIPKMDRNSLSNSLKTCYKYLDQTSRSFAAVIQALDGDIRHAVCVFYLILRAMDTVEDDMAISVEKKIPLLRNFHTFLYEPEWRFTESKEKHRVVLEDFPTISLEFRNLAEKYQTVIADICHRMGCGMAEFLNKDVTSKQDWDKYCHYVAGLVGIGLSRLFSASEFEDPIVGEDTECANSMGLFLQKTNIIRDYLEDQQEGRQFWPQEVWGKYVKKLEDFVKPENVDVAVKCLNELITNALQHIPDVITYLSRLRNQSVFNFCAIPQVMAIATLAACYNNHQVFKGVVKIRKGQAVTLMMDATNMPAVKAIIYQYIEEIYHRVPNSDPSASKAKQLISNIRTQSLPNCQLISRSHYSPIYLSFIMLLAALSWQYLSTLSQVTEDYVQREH
measured_metric: pIC50
Give bare numbers, as −log10 of the molar value.

Quote pIC50 reported for CCCCCCCCCC(=O)OC1C(O)C2(CCCC(OC(C)=O)C(C)C/C=C/c3ccccc3)OC(C(=O)O)C(O)(C(=O)O)C1(C(=O)O)O2 (stereo not shown) [Zaragozic Acid D2] please.
8.22
